experiment: Plasma stability, monkey; type: in vitro ADME; details: Monkey plasma; in vitro; read-out: t½
measured_quantity: half-life at 5 µM

Req: Please report the recorded half-life at 5 µM for O=[N+]([O-])c1ccc(C(OP(=O)(N2CC2)N2CC2)C(F)(F)F)c2ccccc12 (racemic) .
Resp: > 6.22 h

====

assay: Blood-brain barrier experiment, brain and plasma concentrations after IV dosing; assay type: in vivo, CD-1 mice; details: CD-1, mouse, brain, iv, 1 mg/kg, IV 1 mg/kg; 2 h; single animals; read-out: Brain concentration
measured_quantity: concentration at 2 h (ng/g)
All answers are understood in ng/g, so give the number only.

Req: What value of concentration at 2 h has been reported for the following molecule? `O=[N+]([O-])c1ccc([C@H](OP(=O)(N2CC2)N2CC2)C(F)(F)F)c2ccccc12`
Resp: 9
